Biological target: retinoic acid receptor (RAR) (Homo sapiens)
Construct: by the use of an extract from HL 60 cell nuclei; endogenous in cells
Sequence (P10276 whole entry): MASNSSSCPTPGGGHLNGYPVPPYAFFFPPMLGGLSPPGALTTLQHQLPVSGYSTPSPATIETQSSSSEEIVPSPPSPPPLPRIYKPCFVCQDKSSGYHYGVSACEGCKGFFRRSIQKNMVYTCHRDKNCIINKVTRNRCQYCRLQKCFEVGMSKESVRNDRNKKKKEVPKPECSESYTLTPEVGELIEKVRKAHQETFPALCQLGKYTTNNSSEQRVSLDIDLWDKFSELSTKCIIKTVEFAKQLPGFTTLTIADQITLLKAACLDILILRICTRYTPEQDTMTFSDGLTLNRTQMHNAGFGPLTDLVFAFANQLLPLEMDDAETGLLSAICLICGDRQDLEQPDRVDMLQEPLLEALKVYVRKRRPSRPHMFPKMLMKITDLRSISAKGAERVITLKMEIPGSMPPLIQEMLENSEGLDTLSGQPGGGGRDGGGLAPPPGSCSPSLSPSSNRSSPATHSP
Test: Receptor binding assay using human promyelocytic leukemia cell HL60 (nuclear extract), inhibition of 3H-all-trans retinoic acid binding to RAR
Conditions: HL60 cell nucleus extract, 4° C., 16 hours
pIC50: −log10 of the molar value.
reportedEndpoint: pIC50

[P] CCn1nc(-c2ccc(C(=O)O)cc2)c2c1-c1cc3c(cc1CC2)C(C)(C)CCC3(C)C
[Q] Cn1nc(-c2ccc(C(=O)O)cc2)c2c1-c1cc3c(cc1SC2)C(C)(C)CCC3(C)C
[R] CC1(C)CCC(C)(C)c2cc3c(cc21)CCc1c(-c2ccc(C(=O)O)cc2)cn(-c2cccnc2)c1-3
Enquiry: With the 3 compounds above, produce a list ordered by ascending pIC50. List labels; respect the requested ordering.
Return: Q, P, R
(Q: 8.05, P: 8.40, R: 9.30)
